meta.source: the supplement of paper PMC8728848

Catalogue of glycan array binding signal (z-score) values
system.tested: GalNAc(b1-4)Gal(b1-4)Glc
experimental.details: glycan array binding signal (z-score within array); higher = stronger binding
assay.conditions: glycan notation: IUPAC condensed, linker removed
The full list was thinned out, with the strongest signals kept by preference.
Reply with the value as a number alone.

Some entries whose results are on file:
pTFF2 (Sus scrofa), P01359 (protein) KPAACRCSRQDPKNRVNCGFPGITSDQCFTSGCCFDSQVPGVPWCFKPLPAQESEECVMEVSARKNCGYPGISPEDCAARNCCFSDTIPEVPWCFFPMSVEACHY    4.38
Erv46-EDTA (Saccharomyces cerevisiae), P39727 (protein) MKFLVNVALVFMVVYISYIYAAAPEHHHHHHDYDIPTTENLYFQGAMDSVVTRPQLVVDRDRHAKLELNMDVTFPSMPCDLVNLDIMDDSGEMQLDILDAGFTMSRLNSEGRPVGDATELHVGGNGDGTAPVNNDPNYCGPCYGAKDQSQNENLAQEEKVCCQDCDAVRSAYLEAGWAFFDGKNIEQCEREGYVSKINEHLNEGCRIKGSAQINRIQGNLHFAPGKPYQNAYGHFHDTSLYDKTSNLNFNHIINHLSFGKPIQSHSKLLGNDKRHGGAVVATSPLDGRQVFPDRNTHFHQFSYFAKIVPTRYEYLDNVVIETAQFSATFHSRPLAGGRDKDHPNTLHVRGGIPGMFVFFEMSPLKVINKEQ    -0.674

Alright, here's another binder for you.
Would you kindly share the measured glycan array binding signal (z-score) for NPA (Narcissus pseudonarcissus), C0HM45 (protein) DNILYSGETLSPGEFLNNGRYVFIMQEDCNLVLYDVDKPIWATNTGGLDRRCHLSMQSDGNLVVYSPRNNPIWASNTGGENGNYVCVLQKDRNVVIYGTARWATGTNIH ?
-0.129
